# measured.target: human Kv7.2/7.3 channels (Homo sapiens, UniProt O43525+O43526)
# Construct: expressed in transfected cells
# Sequence (O43525 whole entry): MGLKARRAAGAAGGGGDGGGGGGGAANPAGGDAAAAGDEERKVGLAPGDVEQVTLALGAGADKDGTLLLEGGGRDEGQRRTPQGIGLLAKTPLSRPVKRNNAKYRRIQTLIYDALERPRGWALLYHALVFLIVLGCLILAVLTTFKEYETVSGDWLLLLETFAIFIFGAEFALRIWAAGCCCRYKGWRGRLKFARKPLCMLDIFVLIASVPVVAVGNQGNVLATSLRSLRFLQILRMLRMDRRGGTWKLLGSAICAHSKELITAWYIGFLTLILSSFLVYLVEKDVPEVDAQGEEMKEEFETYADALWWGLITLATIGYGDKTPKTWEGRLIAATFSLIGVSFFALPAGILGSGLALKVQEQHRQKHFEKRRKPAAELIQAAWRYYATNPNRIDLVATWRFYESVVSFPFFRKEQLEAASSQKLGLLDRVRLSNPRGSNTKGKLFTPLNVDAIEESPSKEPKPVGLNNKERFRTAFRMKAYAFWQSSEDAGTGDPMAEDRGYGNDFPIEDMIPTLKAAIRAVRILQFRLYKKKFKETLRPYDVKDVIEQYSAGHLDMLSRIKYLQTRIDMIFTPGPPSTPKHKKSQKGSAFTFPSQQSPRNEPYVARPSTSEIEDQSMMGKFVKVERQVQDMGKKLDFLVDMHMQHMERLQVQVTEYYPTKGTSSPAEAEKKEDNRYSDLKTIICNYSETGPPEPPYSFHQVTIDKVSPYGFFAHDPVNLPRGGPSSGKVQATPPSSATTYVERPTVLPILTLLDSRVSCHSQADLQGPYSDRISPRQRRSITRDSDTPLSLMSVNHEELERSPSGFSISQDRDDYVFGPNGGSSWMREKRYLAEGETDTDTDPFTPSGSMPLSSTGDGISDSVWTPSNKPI
# Sequence (O43526 whole entry): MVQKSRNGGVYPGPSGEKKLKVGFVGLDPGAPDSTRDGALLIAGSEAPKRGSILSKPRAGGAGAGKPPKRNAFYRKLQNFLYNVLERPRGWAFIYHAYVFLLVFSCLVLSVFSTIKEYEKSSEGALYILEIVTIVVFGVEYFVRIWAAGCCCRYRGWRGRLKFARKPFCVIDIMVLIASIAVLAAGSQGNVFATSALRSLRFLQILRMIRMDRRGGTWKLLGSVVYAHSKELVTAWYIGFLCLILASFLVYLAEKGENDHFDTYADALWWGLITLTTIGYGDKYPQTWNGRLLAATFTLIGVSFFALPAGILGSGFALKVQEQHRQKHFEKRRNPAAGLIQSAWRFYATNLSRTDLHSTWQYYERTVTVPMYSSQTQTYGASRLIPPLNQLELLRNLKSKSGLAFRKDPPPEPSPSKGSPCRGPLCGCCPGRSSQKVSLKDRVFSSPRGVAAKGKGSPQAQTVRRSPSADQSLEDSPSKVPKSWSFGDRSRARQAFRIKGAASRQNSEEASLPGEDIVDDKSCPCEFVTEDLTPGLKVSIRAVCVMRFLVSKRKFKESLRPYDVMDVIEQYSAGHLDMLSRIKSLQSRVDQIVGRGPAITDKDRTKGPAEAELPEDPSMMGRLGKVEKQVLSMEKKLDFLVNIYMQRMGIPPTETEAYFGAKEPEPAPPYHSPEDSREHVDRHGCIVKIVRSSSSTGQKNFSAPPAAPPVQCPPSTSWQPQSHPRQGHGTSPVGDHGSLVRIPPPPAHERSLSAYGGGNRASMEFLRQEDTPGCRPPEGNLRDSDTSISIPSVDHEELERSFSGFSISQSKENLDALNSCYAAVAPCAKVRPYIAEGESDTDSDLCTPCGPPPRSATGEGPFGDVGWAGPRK
# assay.summary: Assessment of recombinantly expressed human Kv7.2/7.3 channel activation on SyncroPatch automated patch clamp platform
# Assay type: cell-based
quantity.measured: EC50

Problem: Dear colleague, I am looking for the recorded EC50 of the following molecule: CCOC(=O)Nc1c(N)cc(NCc2ccc(F)cc2)cc1F [Compound X, reference compound]
Solution: 100 to 1000 nM

----------
# measured.target: human Kv7.2/7.3 channels (Homo sapiens, UniProt O43525+O43526)
# Construct: expressed in transfected cells
# assay.summary: Assessment of recombinantly expressed human Kv7.2/7.3 channel activation on SyncroPatch automated patch clamp platform
# Assay type: cell-based
# assay.conditions: concentration-dependent shift in G-V midpoint of activation; CHO cells stably expressing human Kv7.2/7.3; SyncroPatch; read-out: EC50 (95% CI)
Examples of compounds with documented EC50 follow.

Example compounds with recorded EC50:
Problem: Entry `C=CCN(Cc1cccc(C(F)(F)F)c1)c1ccc(NC(=O)OCC)c(N)c1` , system human Kv7.2/7.3 channels (Homo sapiens, UniProt O43525+O43526): what EC50 was measured?
Solution: 100 to 1000 nM

Problem: Entry `C=CCN(Cc1ccc(C(F)(F)F)cc1)c1ccc(NC(=O)OCC)c(N)c1F` , system human Kv7.2/7.3 channels (Homo sapiens, UniProt O43525+O43526): what EC50 was measured?
Solution: 100 to 1000 nM

Problem: Entry `C=CCN(Cc1cccc(C(F)(F)F)c1)c1ccc(NC(=O)OCC)c(N)c1F` , system human Kv7.2/7.3 channels (Homo sapiens, UniProt O43525+O43526): what EC50 was measured?
Solution: 5000 to 25000 nM

Problem: Entry `CCOC(=O)Nc1ccc(N2CCc3cc(C(F)(F)F)ccc3C2)c(F)c1N` , system human Kv7.2/7.3 channels (Homo sapiens, UniProt O43525+O43526): what EC50 was measured?
Solution: 1000 to 5000 nM

Problem: Entry `CCOC(=O)Nc1ccc(N2CCc3cc(C(F)(F)F)ccc3C2)cc1N` , system human Kv7.2/7.3 channels (Homo sapiens, UniProt O43525+O43526): what EC50 was measured?
Solution: 1000 to 5000 nM

---
Problem: Entry `CCOC(=O)Nc1ccc(N2CCc3cc(F)ccc3C2)cc1N` , system human Kv7.2/7.3 channels (Homo sapiens, UniProt O43525+O43526): what EC50 was measured?
Solution: 1000 to 5000 nM

Problem: Entry `C#CCN(Cc1ccc(C(F)(F)F)cc1)c1ccc(NC(=O)OCC)c(N)c1` , system human Kv7.2/7.3 channels (Homo sapiens, UniProt O43525+O43526): what EC50 was measured?
Solution: 100 to 1000 nM

Problem: Entry `CCOC(=O)Nc1ccc(N2CCc3ccc(C(F)(F)F)cc3C2)cc1N` , system human Kv7.2/7.3 channels (Homo sapiens, UniProt O43525+O43526): what EC50 was measured?
Solution: 100 to 1000 nM

Problem: Entry `C#CCN(Cc1ccc(C(F)(F)F)cc1)c1ccc(NC(=O)OCC)c(N)c1F` , system human Kv7.2/7.3 channels (Homo sapiens, UniProt O43525+O43526): what EC50 was measured?
Solution: 100 to 1000 nM

Reference for the values: patent US11858900B2
